test system: human cryopreserved hepatocytes; details: human, hepatocytes

[
  {
    "molecule": "COc1ccnc(C[S@+]([O-])c2nc3cc(OC(F)F)ccc3[n-]2)c1OC.COc1ccnc(C[S@+]([O-])c2nc3cc(OC(F)F)ccc3[n-]2)c1OC.O.O.O.[Na+].[Na+] [(S)-pantoprazole Na 1.5 H2O, reference compound]",
    "Intrinsic clearance (Clint)": "16.1 μl/min/10^6 cells"
  },
  {
    "molecule": "[2H]C([2H])([2H])Oc1c(OC)ccnc1C[S+]([O-])c1nc2cc(OC(F)F)ccc2[nH]1 (racemic)",
    "Intrinsic clearance (Clint)": "22.0 μl/min/10^6 cells"
  },
  {
    "molecule": "COc1ccnc(C[S@@+]([O-])c2nc3cc(OC(F)F)ccc3[n-]2)c1OC.COc1ccnc(C[S@@+]([O-])c2nc3cc(OC(F)F)ccc3[n-]2)c1OC.O.O.O.[Na+].[Na+] [(R)-pantoprazole Na 1.5 H2O, reference compound]",
    "Intrinsic clearance (Clint)": "25.7 μl/min/10^6 cells"
  },
  {
    "molecule": "COc1ccnc(C[S+]([O-])c2nc3ccc(OC(F)F)cc3[nH]2)c1OC (racemic) [rac. pantoprazole Na 1.5 H2O, reference compound]",
    "Intrinsic clearance (Clint)": "27.9 μl/min/10^6 cells"
  }
]

Taken from patent US7601737B2.
